Sourced from patent US7435837B2

Molecular target: human 5-hydroxytryptamine-2C (h5-HT2C) receptor (Homo sapiens)
Construct: expressed in transfected cells; host or cells: CHO (Chinese Hamster Ovary) cells; membranes
Test: [125I]DOI binding to membranes of CHO cells expressing the human 5-HT2C receptor
Details: [125I]DOI radioligand, CHO cell membranes, room temperature 60 min; read-out: 5-HT2C Affinity Ki
Observed property: Ki (nM)
Give just the number in nM; leave the unit off.

Consider the reported Ki for these molecules:
CNCC1Cc2cccc(-c3cc(Cl)ccc3Cl)c2O1 (racemic)
2.8
NCC1Cc2cc(Cl)cc(-c3cccnc3)c2O1 (racemic)
4.9
COc1ccccc1-c1cc(C)cc2c1OC(CN)C2 (racemic)
0.8
Cc1ccccc1-c1cc(F)c(F)c2c1OC(CN)C2 (racemic)
9
NCC1Cc2cccc(Nc3ccc(F)c(Cl)c3)c2O1 (racemic)
246

q: Please look at this molecule and report its Ki: Cc1cccc(C)c1-c1cccc2c1CC(CN)O2 (single isomer, unassigned; (+)) [Example 126]
a: 17

###

Target: human 5-HT2C receptor (Homo sapiens, UniProt P28335)
Experiment: 5-HT2C receptor-stimulated calcium mobilization (FLIPR) in CHO cells;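 further: Fluo-3-AM fluorescence read on FLIPR every 1 s, agonist added after 10 baseline reads, response taken as peak minus lowest raw fluorescence count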
Format: cell-based
Details: calcium mobilization, CHO cells stably expressing human 5-HT2C; read-out: 5-HT2C Function EC50
Grouping rule (EC50): LOW (below 0.009 µM), MEDIUM (0.009 µM to below 0.2 µM), HIGH (0.2 µM or more)

Answered examples (2):
CNCC1Cc2cc(Cl)cc(-c3cccc(F)c3F)c2O1 (racemic)
MEDIUM
CNCC1Cc2cccc(-c3ccc(C)cc3)c2O1 (racemic)
MEDIUM

q: Assign a category based on measured EC50 for COc1cccc(-c2cccc3c2OC(CN)C3)c1OC (racemic) [Example 155] and give only the class name.
a: MEDIUM

###

Biological target: human 5-hydroxytryptamine-2C (h5-HT2C) receptor (Homo sapiens)
Construct: expressed in transfected cells; host or cells: CHO (Chinese Hamster Ovary) cells; membranes
Assay: [125I]DOI binding to membranes of CHO cells expressing the human 5-HT2C receptor
Details: [125I]DOI radioligand, CHO cell membranes, room temperature 60 min; read-out: 5-HT2C Affinity Ki
Observed property: Ki (nM)
Lab book: enter the figure in nM, no units written.

Please review the entries below; each comes with its answer.
COc1cccc(-c2cccc3c2OC(CN)C3)c1 (single isomer, unassigned; (-)) [Example 134]
483
CNCC1Cc2cc(F)cc(-c3cc(C)ccc3C)c2O1 (racemic) [Example 452]
24
CNCC1Cc2cc(Cl)cc(C3CCCCC3)c2O1 (racemic) [Example 12]
127
CNCC1Cc2cc(OC)cc(-c3ccc(F)cc3F)c2O1 (racemic) [Example 497]
37

q: Using the record for CNCC1Cc2cc(F)cc(-c3cc(Cl)ccc3Cl)c2O1 (single isomer, unassigned; (+)) [Example 450] , state its measured Ki.
a: 0.27

q: Write down Ki measured for item NCC1Cc2c(F)c(F)cc(-c3ccccc3)c2O1 (racemic) [Example 109]
a: 25

q: Identify measured Ki corresponding to NCC1Cc2cc(Cl)cc(-c3ccccc3)c2O1 (racemic) [Example 84]
a: 11

q: Identify Ki associated with the molecule COc1ccc2c(c1)OC(CN)C2 (racemic) [Example 30]
a: 191

q: Entry CNCC1Cc2cc(-c3ccccc3C)cc(F)c2O1 (racemic) [Example 528] needs its Ki filled in; supply it.
a: 1090

q: Please indicate Ki recorded for CNCC1Cc2cc(C(F)(F)F)cc(-c3ccc(F)c(F)c3)c2O1 (racemic) [Example 522]
a: 474

q: State its Ki: COc1ccc(-c2cc(F)cc3c2OC(CN)C3)c(OC)c1 (racemic) [Example 219]
a: 7

###

# Ki per entry
Target: human 5-hydroxytryptamine-2C (h5-HT2C) receptor (Homo sapiens, UniProt P28335)
Construct: expressed in transfected cells; host or cells: CHO (Chinese Hamster Ovary) cells; membranes
Sequence (P28335 33-458): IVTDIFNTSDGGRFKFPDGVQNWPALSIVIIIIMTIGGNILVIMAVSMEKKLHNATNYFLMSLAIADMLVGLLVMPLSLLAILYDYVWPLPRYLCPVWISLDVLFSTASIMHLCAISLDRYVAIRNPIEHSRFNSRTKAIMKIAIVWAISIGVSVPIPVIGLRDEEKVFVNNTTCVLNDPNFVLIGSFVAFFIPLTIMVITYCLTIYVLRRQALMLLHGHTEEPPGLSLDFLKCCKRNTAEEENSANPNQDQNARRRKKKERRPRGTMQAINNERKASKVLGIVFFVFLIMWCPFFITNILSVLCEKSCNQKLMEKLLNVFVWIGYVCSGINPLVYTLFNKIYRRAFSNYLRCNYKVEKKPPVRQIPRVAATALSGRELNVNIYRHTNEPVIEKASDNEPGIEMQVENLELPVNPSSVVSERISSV
Assay: [125I]DOI binding to membranes of CHO cells expressing the human 5-HT2C receptor
Settings: [125I]DOI radioligand, CHO cell membranes, room temperature 60 min; read-out: 5-HT2C Affinity Ki
Give the value, in units of nM, as a plain number.

Use these answered entries as a reference point.
NCC1Cc2cc(F)cc(-c3ccc(F)cc3)c2O1 (racemic)
19
NCC1Cc2cc(F)cc(-c3ccccc3Cl)c2O1 (single isomer, unassigned; (+)) [Example 101]
0.2
NCC1Cc2cccc(-c3cc(Cl)ccc3Cl)c2O1 (single isomer, unassigned; (-)) [Example 165]
18
CNCC1Cc2cc(C)cc(-c3ccc(OC)cc3)c2O1 (racemic)
5
CNCC1Cc2cc(-c3ccccc3)cc(-c3ccc(F)cc3F)c2O1 (racemic)
2140
NCC1Cc2cc(-c3cccc(F)c3)cc(F)c2O1 (racemic)
923
CCc1cc2c(c(-c3ccccc3C)c1)OC(CN)C2 (racemic)
1.1

Next:
q: Print human 5-hydroxytryptamine-2C (h5-HT2C) receptor (Homo sapiens, UniProt P28335) Ki for NCC1Cc2cccc(-c3ccc(F)cc3)c2O1 (racemic) [Example 73] .
a: 5

###

Biological target: human 5-hydroxytryptamine-2C (h5-HT2C) receptor (Homo sapiens, UniProt P28335)
Construct: expressed in transfected cells; host or cells: CHO (Chinese Hamster Ovary) cells; membranes
Assay: [125I]DOI binding to membranes of CHO cells expressing the human 5-HT2C receptor
Details: [125I]DOI radioligand, CHO cell membranes, room temperature 60 min; read-out: 5-HT2C Affinity Ki
pKi: −log10 of the molar value.
Tick label 1 if pKi is 7 or greater. Tick label 0 if pKi is less than 7.

Cc1ccc(Cl)cc1-c1cc(F)cc2c1O[C@@H](CN)C2 [Example 548]
label 1
CC(C)c1ccccc1-c1cccc2c1OC(CN)C2 (racemic) [Example 61]
label 1
NCC1Cc2ccc(F)c(-c3ccccc3Cl)c2O1 (racemic) [Example 398]
label 1
CNCC1Cc2cc(-c3cccc(F)c3)cc(F)c2O1 (racemic) [Example 535]
label 0
Cc1ccccc1-c1cc(F)cc2c1OC(CN)C2 (single isomer, unassigned; (+)) [Example 105]
label 1
Cc1cccc(-c2cc(F)c3c(c2)CC(CN)O3)c1 (racemic) [Example 380]
label 0
COc1ccccc1-c1cc(F)c2c(c1)CC(CN)O2 (racemic) [Example 379]
label 0

q: Determine whether this molecule has pKi no lower than 7: CC(C)(C)CCc1cccc2c1OC(CN)C2 (racemic) [Example 118]
a: label 0

###

Biological target: human 5-hydroxytryptamine-2C (h5-HT2C) receptor (Homo sapiens, UniProt P28335)
Construct: expressed in transfected cells; host or cells: CHO (Chinese Hamster Ovary) cells; membranes
Sequence (P28335 33-458): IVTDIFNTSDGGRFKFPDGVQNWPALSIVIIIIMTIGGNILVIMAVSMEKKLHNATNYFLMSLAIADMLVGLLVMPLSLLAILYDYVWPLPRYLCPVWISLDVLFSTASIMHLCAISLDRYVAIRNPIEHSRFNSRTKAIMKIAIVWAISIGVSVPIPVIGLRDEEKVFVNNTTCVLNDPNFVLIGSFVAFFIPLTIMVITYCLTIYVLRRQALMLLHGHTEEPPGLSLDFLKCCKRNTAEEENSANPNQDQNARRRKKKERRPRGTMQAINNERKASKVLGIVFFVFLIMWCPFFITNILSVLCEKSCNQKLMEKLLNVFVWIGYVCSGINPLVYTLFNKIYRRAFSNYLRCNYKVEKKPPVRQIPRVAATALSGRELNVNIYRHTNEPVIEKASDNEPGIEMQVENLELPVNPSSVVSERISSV
Assay: [125I]DOI binding to membranes of CHO cells expressing the human 5-HT2C receptor
Conditions: [125I]DOI radioligand, CHO cell membranes, room temperature 60 min; read-out: 5-HT2C Affinity Ki
Observed property: pKi
Keep in mind that pKi stands for -log10 of concentration in molar terms.

Study these solved cases before continuing.
NCC1Cc2cc(F)cc(-c3cccnc3)c2O1 (single isomer, unassigned; (-)) [Example 207]
6.89
NCC1Cc2cc(-c3ccccc3)cc(-c3ccccc3F)c2O1 (racemic)
6.28
NCC1Cc2cccc(-c3cccnc3)c2O1 (single isomer, unassigned; (+)) [Example 171]
9.06
Cc1cccc(C)c1-c1cc(Cl)cc2c1OC(CN)C2 (racemic) [Example 260]
9.89
NCC1Cc2c(cccc2-c2ccccc2C(F)(F)F)O1 (single isomer, unassigned; (+)) [Example 124]
7.28
NCC1Cc2cc(C(F)(F)F)cc(-c3cccc(F)c3)c2O1 (racemic)
7.08
CNCC1Cc2cccc(-c3cccc(Cl)c3)c2O1 (racemic)
8.80
NCC1Cc2cc(F)cc(-c3cncnc3)c2O1 (racemic)
7.44
Cc1cc2c(c(-c3c(C)cccc3C)c1)OC(CN)C2 (racemic)
8.70
NCC1Cc2cc(F)cc(-c3cccc(Cl)c3Cl)c2O1 (racemic)
7.72

q: Fill in reported pKi for this entry: NCC1Cc2cccc(-c3ccccc3)c2O1 (single isomer, unassigned; (+)) [Example 37]
a: 9.00

q: Provide pKi value for the following compound: NCC1Cc2cc(F)cc(-c3ccccc3F)c2O1 (racemic)
a: 9.00

q: Respond only with pKi recorded for CNCC1Cc2cc(C(F)(F)F)cc(-c3cc(C(F)(F)F)cc(C(F)(F)F)c3)c2O1 (racemic)
a: 5.32

q: For Cc1cc2c(c(-c3ccc(F)cc3)c1)OC(CN)C2 (racemic) , write its pKi.
a: 9.40

q: Please supply the value of reported pKi for the item Cc1cccc(-c2cccc3c2OC(CN)C3)c1 (single isomer, unassigned; (-)) [Example 43]
a: 7.00

q: Supply reported pKi belonging to this compound: Cc1cc2c(c(-c3c(Cl)cccc3Cl)c1)OC(CN)C2 (single isomer, unassigned; (-)) [Example 303]
a: 9.70

q: Query pKi for CNCC1Cc2ccc(F)c(-c3ccccc3C)c2O1 (racemic)
a: 9.42

q: Please report pKi for the following compound: NCC1Cc2cccc(-c3cccc(F)c3)c2O1 (racemic) [Example 64]
a: 7.89

q: Recall and state the measured pKi for CNCC1Cc2cccc(-c3ccc(OC)cc3)c2O1 (racemic) .
a: 8.82

q: Give me measured pKi, please, for this compound: COc1cccc(-c2cc(C(F)(F)F)cc3c2OC(CN)C3)c1OC (racemic)
a: 7.42

q: Answer with reported pKi of NCC1Cc2cc(-c3ccccc3)cc(-c3cccc(F)c3)c2O1 (racemic)
a: 6.12

q: Supply reported pKi belonging to this compound: Cc1cccc(-c2cc(Cl)cc3c2OC(CN)C3)c1 (racemic)
a: 7.32

q: Quote pKi reported for CNCC1Cc2cc(F)cc(-c3c(C)cccc3C)c2O1 (single isomer, unassigned; (-)) please.
a: 9.52

q: Report pKi, nothing else, for this compound: NCC1Cc2cccc(-c3c(Cl)cccc3Cl)c2O1 (single isomer, unassigned; (+)) [Example 142]
a: 8.80

q: Retrieve pKi measured for CNCC1Cc2cccc(-c3c(Cl)cccc3Cl)c2O1 (racemic) [Example 433] and print it.
a: 8.46

q: Fill in reported pKi for this entry: N#Cc1ccc(-c2cc(C(F)(F)F)cc3c2OC(CN)C3)cc1 (racemic)
a: 7.06

q: Provide one value: measured pKi of NCC1Cc2cc(Cl)cc(-c3ccc(F)c(F)c3)c2O1 (racemic)
a: 7.38
